All figures here come from PubChem BioAssay.

System: transient receptor potential cation channel C4 beta (TRPC4), mouse
Assay: activators of mouse TRPC4 channel, confirmation, cell-based, second round, Fluo4, HEK293 TRPC4beta/mu-opioid, 1 µM (AID 2461)
Conditions: Fluo4 calcium fluorescence, at 1 µM
Activity calls are given as the source filed them.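 How the source made its calls: active means primary screen active and over 50% activation in each of two duplicate runs; inactive means the rest.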
Permitted responses: yes for active, no for inactive

[
  {
    "Molecule": "COc1cc(OC)cc(C(=O)NCCCN2CCN(CCCNC(=O)c3cc(OC)cc(OC)c3)CC2)c1",
    "Label value": "yes"
  }
]

(Q) Call for entry `Clc1ccc(OCCNCCc2ccccc2)cc1` :
(A) no

(Q) What do you have for `CC(C)(C)c1cc(Cl)ccc1OCCn1ccnc1` ?
(A) no

(Q) What do you have for `CN(C)/C=C1\C(=O)N(c2ccc([N+](=O)[O-])cc2)N=C1c1ccccc1` ?
(A) no

(Q) What do you have for O=C(C1CCCN(Cc2ccncc2)C1)N1CCc2ccccc2C1 (stereo not given) ?
(A) yes

(Q) What do you have for `Cc1ccc(C)c(S(=O)(=O)N2CCN(C(=O)CCc3nc4ccccc4c(=O)[nH]3)CC2)c1` ?
(A) no

(Q) What do you have for `O=c1c2ccccc2[nH]c(=S)n1Cc1cccnc1` ?
(A) no
